Molecular target: KRas WT (Homo sapiens, UniProt P01116)
Sequence (P01116 1-169 isoform P01116-2): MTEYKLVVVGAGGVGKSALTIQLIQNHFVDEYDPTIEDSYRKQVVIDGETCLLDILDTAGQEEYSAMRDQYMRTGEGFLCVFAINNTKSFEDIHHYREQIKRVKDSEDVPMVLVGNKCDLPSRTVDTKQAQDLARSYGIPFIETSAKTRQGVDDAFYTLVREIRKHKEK
Test: KRas binding assay (TR-FRET displacement), KRas WT
Conditions: TR-FRET displacement
observation.type: IC50 (nM)

Some molecules with known IC50 results, for comparison:
molecule	u	IC50
CCc1cccc2cccc(N3CCc4c(nc(OCC5(CN(C)C)CC5)nc4NCc4nc(C5CC5)n[nH]4)C3)c12	nM	16900
CN(C)C(=O)c1cc2n(n1)CCCN(c1nc(OC[C@@]34CCCN3C[C@H](F)C4)nc3c1CCN(c1ccc(F)c4sc(N)c(C#N)c14)C3)C2	nM	95
C[C@@H]1C[C@@H]1c1c(Cl)cc(O)cc1N1CCc2c(nc(OC[C@@]34CCCN3C[C@H](F)C4)nc2N2CCCn3nc(C(=O)N(C)C)cc3C2)C1 (stereo in doubt)	nM	5
CCc1cccc2cccc(N3CCc4c(nc(OCC5(CN(C)C)CC5)nc4NCc4ncc(C#N)c(N)n4)C3)c12	nM	3310
CCc1cccc2cccc(N3CCc4c(nc(OCC5(CN(C)C)CC5)nc4N4CCn5nncc5C4)C3)c12	nM	87600

(1) CCc1cccc2cccc(N3CCc4c(nc(OCC5(CN(C)C)CC5)nc4N(C)Cc4nnc5n4CCOC5)C3)c12
(2) CCc1cccc2cccc(N3CCc4c(nc(OCC5(CN(C)C)CC5)nc4NCc4nnnn4C4CCC4)C3)c12
(3) CCc1cccc2cccc(N3CCc4c(nc(OCC5(CN(C)C)CC5)nc4N4Cc5cn[nH]c5CC(C)C4)C3)c12 (stereo not shown)
Rank order required: IC50, descending. # answer = labels listed in requested order 3, 2, 1

* * *

Test system: H358 cells
Assay: Inhibition of KRas-mediated phosphorylation of ERK (Cisbio HTRF pERK), H358 cells
Type: cell-based
Conditions: Homo sapiens, NCI-H358, single point at 100 nM, 3 hrs compound incubation
observation.type: inhibition at 0.1 µM (%)
Quick reminder: number only, in %, skip the unit.

molecule	reported.value
CCc1c(F)ccc2cc(O)cc(N3CCc4c(nc(OC[C@@]56CCCN5C[C@H](F)C6)nc4N4CCCn5nc(NC)c(OC)c5C4)C3)c12	83

Recorded inhibition at 0.1 µM of CCc1c(F)ccc2cc(O)cc(N3CCc4c(nc(OC[C@@]56CCCN5C[C@H](F)C6)nc4N4CCCn5nc(P(C)(C)=O)cc5C4)C3)c12 , please. 76

Do the same for Cc1c(F)ccc2cc(O)cc(N3CCc4c(nc(OC[C@@]56CCCN5C[C@H](F)C6)nc4N4CCCC5(CNS(=O)(=O)N5)C4)C3)c12 (stereo partly drawn) please 92

Similarly, CCc1c(F)ccc2cc(O)cc(N3CCc4c(nc(OC[C@@]56CCCN5C[C@H](F)C6)nc4N4CCCn5nc(CN(C)C(=O)N(C)C)cc5C4)C3)c12 ? 26

For CCc1c(F)ccc2cc(O)cc(N3CCc4c(nc(OC[C@@]56CCCN5C[C@H](F)C6)nc4N4CCCn5nc(C(=O)NC)c(OC)c5C4)C3)c12 then? 103

Same for CCNC(=O)c1nn2c(c1C)CN(c1nc(OC[C@@]34CCCN3C[C@H](F)C4)nc3c1CCN(c1cc(O)cc4ccc(F)c(CC)c14)C3)CCC2 105

* * *

Test system: H358 cells
Experiment: Inhibition of KRas-mediated phosphorylation of ERK (Cisbio HTRF pERK), H358 cells
Format: cell-based
Conditions: Homo sapiens, NCI-H358, single point at 100 nM, 3 hrs compound incubation
observation.type: inhibition at 0.1 µM (%)
Lab book: enter the figure in %, no units written.

Missing value: inhibition at 0.1 µM, H358 cells, entry CCc1c(F)ccc2cc(O)cc(N3CCc4c(nc(OC[C@@]56CCCN5C[C@H](F)C6)nc4N4CCCn5nc(C(=O)N(C)C6CC6)cc5C4)C3)c12 . Fill in? 98

Also, CCc1c(F)ccc2cc(O)cc(N3CCc4c(nc(OC[C@@]56CCCN5C[C@H](F)C6)nc4N4CCCn5nc(CNS(=O)(=O)N(C)C)cc5C4)C3)c12 please. -26

CCc1c(F)ccc2cc(O)cc(N3CCc4c(nc(OC[C@@]56CCCN5C[C@H](F)C6)nc4N4CCCn5nc(CC(=O)N(C)C)cc5C4)C3)c12 , same question. 19

Consider next the compound CCc1c(F)ccc2cc(O)cc(N3CCc4c(nc(OC[C@@]56CCCN5C[C@H](F)C6)nc4N4CCCn5nc(C(=O)N(C)C)c(Br)c5C4)C3)c12 in the same way. 100

Likewise for CCc1c(F)ccc2cc(O)cc(N3CCc4c(nc(OC[C@@]56CCCN5C[C@H](F)C6)nc4N4CCCn5nc(C(=O)N6C[C@@H](C)N[C@@H](C)C6)cc5C4)C3)c12 ? 98

Param item: CCc1c(F)ccc2cc(O)cc(N3CCc4c(nc(OC[C@@]56CCCN5C[C@H](F)C6)nc4N4CCCn5nc(C(=O)NC)c(Cl)c5C4)C3)c12 97
